target: CyclinA2/CDK2 (Homo sapiens, UniProt P20248); construct: purchased CRELUX Protein Services; test: Fluorescence Polarization (FP) competitive binding assay, Cyclin A2/Cdk2; conditions: 8 nM Cyclin A2/Cdk2, 2 nM FAM probe; average of 2-3 independent experiments; read-out: Cyclin A FP IC50;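 also: plates equilibrated two hours at room temperature before polarization reading, IC50 fitted from eight-concentration compound titration curves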
*1 amine or outer side, *2 acyl side, *3 side chain or, on linkers, in order; H or OH if unused. Where a SMILES comes first, the peptide text is derived from it. Bridges are numbered along the chain shown (N, C = ends). [ ]: non-standard residue; d: D form. The star is where a group is joined. X202 = CN([C@@H](Cc1cc(Cl)ccc1-c1ccc(N2CCN(CC(F)F)CC2)cc1)C(=O)[*:2])[*:1]; NMehhhLys(Me) = CN([C@@H](CCCCCCCN(C)[*:3])C(=O)[*:2])[*:1]; X163 = CN([C@@H](Cc1cc(Cl)ccc1N1CCOCC1)C(=O)[*:2])[*:1]; cBuCO(3,3-F2-1-CF3) = O=C(C1(C(F)(F)F)CC(F)(F)C1)*; Pro(trans-4-F) = O=C(O)[C@@H]1C[C@@H](F)CN1; Gly(cPr) = N[C@H](C(=O)O)C1CC1
endpoint label: pIC50
Entry type: numeric. Quantity: pIC50, the -log10 of concentration in molar units.

compound	pIC50
Cc1nnc(-c2ccc(Cl)cc2C[C@H]2C(=O)NCCCCC=CC[C@H](N(C)C(=O)[C@@H](NC(=O)[C@@H]3C[C@@H](F)CN3C(=O)C3(C(F)(F)F)CC(F)(F)C3)C3CC3)C(=O)N[C@@H](CC(C)C)C(=O)N2C)o1 (single isomer, unassigned) [Example 118-P2]	7.22
CC(C)C[C@@H]1NC(=O)[C@@H](N(C)C(=O)[C@@H](NC(=O)[C@@H]2C[C@@H](F)CN2C(=O)C2(C(F)(F)F)CC(F)(F)C2)C2CC2)CCCCCCCN(C)C(=O)[C@H](Cc2cc(Cl)ccc2N2CCOCC2)N(C)C1=O [Example 319] ({cBuCO(3,3-F2-1-CF3)}-[Pro(trans-4-F)][Gly(cPr)][NMehhhLys(Me)]L[X163]; lactam 3-C)	7.52

Find the recorded pIC50 belonging to CC(C)C[C@@H]1NC(=O)[C@@H](N(C)C(=O)[C@@H](NC(=O)[C@@H]2C[C@@H](F)CN2C(=O)C2(C(F)(F)F)CC(F)(F)C2)C2CC2)CCCCCCCN(C)C(=O)[C@H](Cc2cc(Cl)ccc2-c2ccc(N3CCN(CC(F)F)CC3)cc2)N(C)C1=O [Example 352] ({cBuCO(3,3-F2-1-CF3)}-[Pro(trans-4-F)][Gly(cPr)][NMehhhLys(Me)]L[X202]; lactam 3-C) and report it.
7.70

---

biological target: CyclinE1/CDK2 (Homo sapiens); construct: purchased Eurofins, discovery 14-475; experiment: Fluorescence Polarization (FP) competitive binding assay, Cyclin E1/Cdk2; settings: 10 nM Cyclin E1/Cdk2, 2 nM FAM probe; average of 2-3 independent experiments; read-out: Cyclin E FP IC50;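 also: readings taken after two-hour equilibration at room temperature in HEPES buffer with NaCl, DTT, NP-40 and BSA, IC50 fitted from eight-concentration serial dilution series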
*1 amine or outer side, *2 acyl side, *3 side chain or, on linkers, in order; H or OH if unused. Where a SMILES comes first, the peptide text is derived from it. Bridges are numbered along the chain shown (N, C = ends). [ ]: non-standard residue; d: D form. The star is where a group is joined. X150 = CC(C)C(=O)N1C2C=C(c3ccc(F)cc3C[C@@H](C(=O)[*:2])N(C)[*:1])CC1CC2; X86 = CN([C@@H](Cc1cc(Cl)ccc1-c1cnn(C2CCOCC2)c1)C(=O)[*:2])[*:1]; NMehhhLys(Me) = CN([C@@H](CCCCCCCN(C)[*:3])C(=O)[*:2])[*:1]; cBuCO(3,3-F2-1-CF3) = O=C(C1(C(F)(F)F)CC(F)(F)C1)*; Pro(trans-4-F) = O=C(O)[C@@H]1C[C@@H](F)CN1; Gly(cPr) = N[C@H](C(=O)O)C1CC1
endpoint label: IC50 (nM)
Kindly provide the numeric value in nM only, without the unit symbol.

molecule	unit abbreviation	IC50
CC(C)C[C@@H]1NC(=O)[C@@H](N(C)C(=O)[C@@H](NC(=O)[C@@H]2C[C@@H](F)CN2C(=O)C2(C(F)(F)F)CC(F)(F)C2)C2CC2)CCCCCCCN(C)C(=O)[C@H](Cc2cc(F)ccc2C2=CC3CCC(C2)N3C(=O)C(C)C)N(C)C1=O (stereo partly drawn) [Example 150] ({cBuCO(3,3-F2-1-CF3)}-[Pro(trans-4-F)][Gly(cPr)][NMehhhLys(Me)]L[X150]; lactam 3-C)	nM	210

I'd like to know its IC50. The molecule in question is CC(C)C[C@@H]1NC(=O)[C@@H](NC(=O)[C@@H](NC(=O)[C@@H]2C[C@@H](F)CN2C(=O)C2(C(F)(F)F)CC2)C2CC2)CC=CCCCCN(C)C(=O)[C@H](Cc2cc(Cl)ccc2Cl)N(C)C1=O
100

For the molecule shown here, CC(C)C[C@@H]1NC(=O)[C@@H](N(C)C(=O)[C@@H](NC(=O)[C@@H]2C[C@@H](F)CN2C(=O)C2(C(F)(F)F)CC(F)(F)C2)C2CC2)CCCCCCCN(C)C(=O)[C@H](Cc2cc(Cl)ccc2-c2cnn(C3CCOCC3)c2)N(C)C1=O [Example 114] ({cBuCO(3,3-F2-1-CF3)}-[Pro(trans-4-F)][Gly(cPr)][NMehhhLys(Me)]L[X86]; lactam 3-C) , give the reported IC50.
400

---

test system: NCI-H1048 cells; assay: MTT proliferation assay, NCI-H1048; format: cell-based; conditions: 5 days compound exposure, 1:3 serial dilution starting at 10 μM;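 also: Dose-response in 96-well plates over 8 or 10 concentration points, with exposure spanning 3-4 cell doublings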
*1 amine or outer side, *2 acyl side, *3 side chain or, on linkers, in order; H or OH if unused. Where a SMILES comes first, the peptide text is derived from it. Bridges are numbered along the chain shown (N, C = ends). [ ]: non-standard residue; d: D form. The star is where a group is joined. X205 = CC(C)C(=O)N1[C@@H]2COC[C@H]1C=C(c1ccc(F)cc1C[C@@H](C(=O)[*:2])N(C)[*:1])C2; X121 = C[C@@H]1CN(c2ccc(-c3ccc(Cl)cc3C[C@@H](C(=O)[*:2])N(C)[*:1])cc2)CCO1; X61 = Cc1nc2c(F)cc(-c3ccc(Cl)cc3C[C@@H](C(=O)[*:2])N(C)[*:1])cc2n1C(C)C; X42 = CN([C@@H](Cc1cc(Cl)ccc1-c1cnn(S(=O)(=O)C2CC2)c1)C(=O)[*:2])[*:1]; NMeAla(5-Cl-2-cPrO-3-pyridyl) = CN[C@@H](Cc1cc(Cl)cnc1OC1CC1)C(=O)O; X209 = CN([C@@H](Cc1cc(Cl)ccc1-c1cnc2nn(C)cc2c1)C(=O)[*:2])[*:1]; X76 = CN([C@@H](Cc1cc(Cl)ccc1-c1cnn2cccnc12)C(=O)[*:2])[*:1]; NMehhhLys(Me) = CN([C@@H](CCCCCCCN(C)[*:3])C(=O)[*:2])[*:1]; X174 = CN([C@@H](Cc1cc(Cl)cnc1-c1cnn(C)c1)C(=O)[*:2])[*:1]; NMe(hhhLys) = CN([C@@H](CCCCCCCN[*:3])C(=O)[*:2])[*:1]; cBuCO(3,3-F2-1-CF3) = O=C(C1(C(F)(F)F)CC(F)(F)C1)*; X4 = Cc1ccc(Cl)cc1C[C@@H](C(=O)[*:2])N(C)[*:1]; Pro(trans-4-F) = O=C(O)[C@@H]1C[C@@H](F)CN1; Gly(cPr) = N[C@H](C(=O)O)C1CC1
Known GI50 of a selection of compounds
Give your result in nM as a bare value.

Known results for compounds:
compound	unit abbreviation	GI50
CC(C)C[C@@H]1NC(=O)[C@@H](N(C)C(=O)[C@@H](NC(=O)[C@@H]2C[C@@H](F)CN2C(=O)C2(C(F)(F)F)CC(F)(F)C2)C2CC2)C/C=C\CCCCN(C)C(=O)[C@H](Cc2cc(Cl)cnc2OC2CC2)N(C)C1=O	nM	70
CC(C)C[C@@H]1NC(=O)[C@@H](N(C)C(=O)[C@@H](NC(=O)[C@@H]2C[C@@H](F)CN2C(=O)C2(C(F)(F)F)CC(F)(F)C2)C2CC2)CCCCCCCNC(=O)[C@H](Cc2cc(Cl)ccc2-c2cnn(S(=O)(=O)C3CC3)c2)N(C)C1=O [Example 300] ({cBuCO(3,3-F2-1-CF3)}-[Pro(trans-4-F)][Gly(cPr)][NMe(hhhLys)]L[X42]; lactam 3-C)	nM	30
CC(C)C[C@@H]1NC(=O)[C@@H](N(C)C(=O)[C@@H](NC(=O)[C@@H]2C[C@@H](F)CN2C(=O)C2(C(F)(F)F)CC(F)(F)C2)C2CC2)CCCCCCCN(C)C(=O)[C@H](Cc2cc(Cl)ccc2-c2cnn3cccnc23)N(C)C1=O [Example 297] ({cBuCO(3,3-F2-1-CF3)}-[Pro(trans-4-F)][Gly(cPr)][NMehhhLys(Me)]L[X76]; lactam 3-C)	nM	20
CC(C)C[C@@H]1NC(=O)[C@@H](N(C)C(=O)[C@@H](NC(=O)[C@@H]2C[C@@H](F)CN2C(=O)C2(C(F)(F)F)CC3(CCC3)C2)C2CC2)CC=CCCCCNC(=O)[C@H](Cc2cc(Cl)ccc2Cl)N(C)C1=O (single isomer, unassigned) [Example 16-P1]	nM	340
Cc1nc2c(F)cc(-c3ccc(Cl)cc3C[C@H]3C(=O)N(C)CCCCCCC[C@H](N(C)C(=O)[C@@H](NC(=O)[C@@H]4C[C@@H](F)CN4C(=O)C4(C(F)(F)F)CC(F)(F)C4)C4CC4)C(=O)N[C@@H](CC(C)C)C(=O)N3C)cc2n1C(C)C [Example 231] ({cBuCO(3,3-F2-1-CF3)}-[Pro(trans-4-F)][Gly(cPr)][NMehhhLys(Me)]L[X61]; lactam 3-C)	nM	20
CC(C)C[C@@H]1NC(=O)[C@@H](N(C)C(=O)[C@@H](NC(=O)[C@@H]2C[C@@H](F)CN2C(=O)C2(C(F)(F)F)CC(F)(F)C2)C2CC2)CC=CCCCCNC(=O)[C@H](Cc2cc(Cl)ccc2-c2cnn(C3COC3)c2)N(C)C1=O	nM	90

Which GI50 is listed for CC(C)C[C@@H]1NC(=O)[C@@H](N(C)C(=O)[C@@H](NC(=O)[C@@H]2C[C@@H](F)CN2C(=O)C2(C(F)(F)F)CC(F)(F)C2)C2CC2)CCCCCCCN(C)C(=O)[C@H](Cc2cc(F)ccc2C2=C[C@@H]3COC[C@H](C2)N3C(=O)C(C)C)N(C)C1=O [Example 329] ({cBuCO(3,3-F2-1-CF3)}-[Pro(trans-4-F)][Gly(cPr)][NMehhhLys(Me)]L[X205]; lactam 3-C) ?
10

If you can, please state the reported GI50 value of CC(C)C[C@@H]1NC(=O)[C@@H](N(C)C(=O)[C@@H](NC(=O)[C@@H]2C[C@@H](F)CN2C(=O)C2(C(F)(F)F)CC(F)(F)C2)C2CC2)CCCCCCCN(C)C(=O)[C@H](Cc2cc(Cl)ccc2-c2ccc(N3CCO[C@H](C)C3)cc2)N(C)C1=O [Example 414] ({cBuCO(3,3-F2-1-CF3)}-[Pro(trans-4-F)][Gly(cPr)][NMehhhLys(Me)]L[X121]; lactam 3-C) .
10

Which measured GI50 value corresponds to Cc1ccc(Cl)cc1C[C@H]1C(=O)NCCCCCCC[C@H](N(C)C(=O)[C@@H](NC(=O)[C@@H]2C[C@@H](F)CN2C(=O)C2(C(F)(F)F)CC(F)(F)C2)C2CC2)C(=O)N[C@@H](CC(C)C)C(=O)N1C [Example 270] ({cBuCO(3,3-F2-1-CF3)}-[Pro(trans-4-F)][Gly(cPr)][NMe(hhhLys)]L[X4]; lactam 3-C) ?
80

Need GI50, item CC(C)C[C@@H]1NC(=O)[C@@H](N(C)C(=O)[C@@H](NC(=O)[C@@H]2C[C@@H](F)CN2C(=O)C2(C(F)(F)F)CC(F)(F)C2)C2CC2)CCCCCCCN(C)C(=O)[C@H](Cc2cc(Cl)cnc2-c2cnn(C)c2)N(C)C1=O [Example 246] ({cBuCO(3,3-F2-1-CF3)}-[Pro(trans-4-F)][Gly(cPr)][NMehhhLys(Me)]L[X174]; lactam 3-C)
30

Entry CC(C)C[C@@H]1NC(=O)[C@@H](N(C)C(=O)[C@@H](NC(=O)[C@@H]2C[C@@H](F)CN2C(=O)C2(C(F)(F)F)CC(F)(F)C2)C2CC2)CCCCCCCNC(=O)[C@H](Cc2cc(Cl)cnc2OC2CC2)N(C)C1=O [Example 103] ({cBuCO(3,3-F2-1-CF3)}-[Pro(trans-4-F)][Gly(cPr)][NMe(hhhLys)]L[NMeAla(5-Cl-2-cPrO-3-pyridyl)]; lactam 3-C) : reported GI50 = ?
30

Looking for the measured GI50 of CC(C)C[C@@H]1NC(=O)[C@@H](N(C)C(=O)[C@@H](NC(=O)[C@@H]2C[C@@H](F)CN2C(=O)C2(C(F)(F)F)CC(F)(F)C2)C2CC2)CCCCCCCN(C)C(=O)[C@H](Cc2cc(Cl)ccc2-c2cnc3nn(C)cc3c2)N(C)C1=O [Example 249] ({cBuCO(3,3-F2-1-CF3)}-[Pro(trans-4-F)][Gly(cPr)][NMehhhLys(Me)]L[X209]; lactam 3-C) , can you help?
10
